LogAUC by entry:
molecular target: CH505.M21D8gp120/293F; assay: ELISA
Output spec: single numeric token, no unit.

Example binders with recorded LogAUC:
# BINDER, REPORTED METRIC, OBSERVED VALUE
data = [
    ("CH556 (antibody, V domains shown, also called CH235.11) VH: QVQLVQSGGTVKSPGTSVTLSCKTSGYNFIDYYIHWVRRAPGQRPELMGYIDPSHGRPDYEGKFRDRISLYRDTSTSVVYMDVRGLRLDDTALYYCVRGGGVEVSSNHYDHWGPGTMVFVSP VL: ETTLTQSPDTLSASPGERVTLSCRAAQSVGSQVAWFRHIRGQPPRLLISGASTRAAGVPARFSGSGSGTDFTLTISGMQSEDFAEYFCQQYHMWWTFGQGTRVDKN", "LogAUC", 0.1),
    ("CH493 (antibody, V domains shown, also called CH235.9; DH493) VH: QVRLLQYGGGVKRPGASMTISCVASGYNFNDYYIHWVRQAPGQGLELMGWIDPSGGRTDYAGAFGDRVSMYRDKSMNTLYMDLRSLRSGDTAMYYCVRNVGTAGSLLHYDHWGLGVMVTVSS VL: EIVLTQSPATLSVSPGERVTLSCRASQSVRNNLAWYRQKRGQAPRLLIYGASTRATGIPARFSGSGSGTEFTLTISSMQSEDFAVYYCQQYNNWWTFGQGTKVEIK", "LogAUC", 1.13),
    ("CH236 (antibody, V domains shown, also called CH236_4A/293i) VH: QVQLVQSGAAVKRPGASVTISCRASGYTFTTYYIHWVRQAPGQRLELMGMIDPSRGRTDYAQKFQGRVTMSRDTSTSTLYMELRSLRPDDTALYYCVRNVGTEGSLLHYDYWGQGTLVTVSS VL: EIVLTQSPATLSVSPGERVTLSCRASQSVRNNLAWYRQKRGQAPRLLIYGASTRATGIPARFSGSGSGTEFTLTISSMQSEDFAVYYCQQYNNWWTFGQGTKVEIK", "LogAUC", 0),
    ("CH555 (antibody, V domains shown, also called CH235.10) VH: QVQLVQSGATVKKPRASVTLSCRTSGYNFIDYFIHWVRRAPGQRLEVMGYIDPSRGRPDYAPNFRDRVSLYRDTSMSIVYLDLRDLTPDDTAIYYCVRSEGTEGTVLHYDHWGPGTRVTVSP VL: EIVLTQSPDTLSASPGERVTLSCRASQSVGTKVAWYRHVRGQPPRLLIYGASTRAAGIPARFSGGGSGTNFTLIINNFQSEDFAEYLCQQYKSWWTFGQGTKVDNK", "LogAUC", 0),
]

Here is the next item to consider.
If you can, please state the reported LogAUC value of CH235.13 (antibody, V domains shown) VH: QVQLVQSGGGVKRPGSTTTISCVASGYSFNDYYIHWVRQAPGQGLEVLGFIDPSNGRTNYAGAFGDRFSMYRDKSMETLYMDLRNLRSDDTAMYYCVRNVGTAGSLLHYDHWGTGSKIIVSS VL: EIVLTQSPATLSASPGERVTLTCRASRGVRNNVAWYQHNVGQSPRLLIYDASTRAPGIPARFSGSASGTEFTLAISSIQSEDFTLYYCHQYNNWWTFGQGTRVDIN .
0
